Field: IC50. Provide a value for each of the compounds that follow.
tgt: Rac GTPase-activating protein 1 (Homo sapiens)
Sequence (Q9H0H5 whole entry): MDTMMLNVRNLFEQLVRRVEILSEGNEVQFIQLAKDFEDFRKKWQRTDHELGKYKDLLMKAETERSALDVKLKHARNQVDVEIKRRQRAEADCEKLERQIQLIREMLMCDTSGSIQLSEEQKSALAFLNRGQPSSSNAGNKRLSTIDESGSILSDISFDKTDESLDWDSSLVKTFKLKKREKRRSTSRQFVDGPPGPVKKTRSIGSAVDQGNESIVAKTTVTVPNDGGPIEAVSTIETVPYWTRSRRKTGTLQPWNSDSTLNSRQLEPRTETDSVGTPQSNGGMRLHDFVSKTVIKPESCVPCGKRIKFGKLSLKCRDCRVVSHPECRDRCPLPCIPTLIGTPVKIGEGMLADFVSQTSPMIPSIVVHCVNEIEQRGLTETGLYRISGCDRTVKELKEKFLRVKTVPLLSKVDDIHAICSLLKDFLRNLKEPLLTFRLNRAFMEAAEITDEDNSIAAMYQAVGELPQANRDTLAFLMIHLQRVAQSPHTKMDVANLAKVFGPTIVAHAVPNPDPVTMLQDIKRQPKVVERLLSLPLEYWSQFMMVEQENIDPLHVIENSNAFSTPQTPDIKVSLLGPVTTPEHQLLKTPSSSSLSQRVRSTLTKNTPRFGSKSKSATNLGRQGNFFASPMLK
measurement_protocol: MgcRacGAP GTPase-activating activity inhibitors, confirmation, biochemical, ADP Hunter fluorescence, primary and confirmatory (AID 624330)
Format: functional
Activity calls are given as the source filed them. The rule behind the calls is not given here.

COc1ccccc1-n1c(/C=C/c2ccc(O)cc2)nc2ccccc2c1=O ... 106 µM (active)
C/C=C/C=C/C(=O)C1=C(O)[C@]2(C)C(=O)C(C)(O)[C@H]1[C@H]([C@]1(C)OC(O)=C(C)C1=O)[C@H]2C(=O)/C=C/C=C/C (stereo partly specified) ... 122 µM (active)
CCOC(=O)c1sc(/N=C/c2c(O)ccc3ccccc23)cc1C ... 139 µM (active)
Cc1cc(C)c2c(c1)NC(C(=O)O)C1CC=CC21 (stereo unspecified) ... 171 µM (active)

Quick one: give me IC50 for each item below, same order please.
1. Cc1cc(C)n(CCC(=O)N/N=C/c2ccc(O)cc2)n1
2. Cc1cc(O)ccc1NC(=O)c1ccccc1

Reply text:
77.2 µM (active)
69.1 µM (active)

Quick one: give me IC50 for each item below, same order please.
1. Nc1ccc2nc(S)sc2c1
2. CCn1c2ccccc2c2cc(CNCc3ccc(OC)cc3OC)ccc21
3. Oc1ccc(-c2[nH]ncc2-c2ccc(Cl)cc2)c(O)c1
4. CC(=O)N1CCN(c2ccc(NCc3cccs3)cc2)CC1
5. COc1ccc(-n2c(=O)c3c4c(sc3n3c(S)nnc23)CCCC4)cc1

Reply text:
1. 30.4 µM (active)
2. 99.7 µM (active)
3. 90.8 µM (active)
4. 14.1 µM (active)
5. 35.7 µM (active)

Data credit: ChEMBL document CHEMBL1201862
